# Test system: SK-MEL-2 melanoma
# Experimental protocol: NCI tumour cell line growth inhibition, 48 h
Readout kind: TGI (µM)
Could you give me the number in µM? Just the number is fine.

Would you please look over these solved cases?
INSERT INTO measurements (compound, readout_kind, measured_result) VALUES
  ('CC(=O)ON1CCCC(P(=O)(OCOC(=O)C(C)(C)C)OCOC(=O)C(C)(C)C)C1=O (stereo not drawn)', 'TGI', 6.91),
  ('COc1cc(/C=C2\C[C@H]3[C@@H]4CCc5cc(OCCN6CCCC6)ccc5[C@H]4CC[C@]3(C)C2=O)cc(OC)c1OC', 'TGI', 5.34),
  ('COc1cc([C@@H]2c3cc4c(cc3[C@@H](NC(=O)c3ccc(C#N)cc3)C3COC(=O)[C@@H]32)OCO4)cc(OC)c1O (stereo partly drawn)', 'TGI', 5.56),
  ('COC(=O)CC(=O)OSc1ccccc1', 'TGI', 97.5);

Read the next record carefully.
Q: Bench note: what TGI did O=C1C=CC2(O[C@H](c3ccccc3)[C@@H](c3ccccc3)O2)[C@H](Sc2ccccc2O)C1 show?
Result: 4.63

---

# System: IGROV1 ovarian
# Experimental protocol: NCI tumour cell line growth inhibition, 48 h; in the data active means GI50 below about 0.43 µM; inactive means the rest
Entry note: the call must match one of active, inactive

Q: Tell me the assay call for Cn1nccc1Nc1nccc(-c2ccn([C@H](CO)c3ccc(Cl)c(F)c3)c(=O)c2)n1 please.
Result: inactive

Q: Tell me the assay call for CCN(CC)Cc1cc(Nc2nc(NC3CCC(N(C)C)CC3)c3ccccc3n2)ccc1OC (stereo not drawn) please.
Result: inactive

---

# Test system: SN12C renal
# Experimental protocol: NCI tumour cell line growth inhibition, 48 h
Readout kind: TGI

Would you please look over these solved cases?
INSERT INTO assay_data (compound, measured_result) VALUES
  ('CN(O)C(=O)/C=C/c1ccc(OCc2cccc(Cl)c2)cc1', '55.9 µM'),
  ('CC(=O)O[C@@H](c1nccn1Cc1ccccc1)[C@H]1OC(C)(C)O[C@@H]1[C@H]1COC(C)(C)O1', '> 100 µM'),
  ('Cc1c(C)n(-c2ccccc2)c2nc(S(C)=O)nc(S(C)=O)c12 (centres undefined)', '24.6 µM');

Q: Request body: readout TGI, system SN12C renal, query CCOC(=O)/C=C/c1nc(C#N)c(N)o1 . Return the value.
Result: > 100 µM

Q: Request body: readout TGI, system SN12C renal, query O=C1NC(=O)c2c1n(Cc1ccccc1)c(=O)n2Cc1ccccc1 . Return the value.
Result: > 100 µM

Q: Request body: readout TGI, system SN12C renal, query Cc1c2cccc-2c2cc(O)c3ccccc3c2n1-c1ccc(N(C)C)cc1 . Return the value.
Result: 33.9 µM

Q: Request body: readout TGI, system SN12C renal, query COc1ccc(C(=O)c2cc(OC)c(OC)c(OC)c2OC)cc1O . Return the value.
Result: > 100 µM

Q: Request body: readout TGI, system SN12C renal, query COc1ccc2ccc3oc(=O)c(C)cc3c2c1 . Return the value.
Result: > 100 µM

Q: Request body: readout TGI, system SN12C renal, query COc1ccc(C)cc1N1C(=O)C2ON(Cc3ccc(CC(N)=O)cc3)C(c3c4ccccc4c(Cl)c4ccccc34)C2C1=O (centres undefined) . Return the value.
Result: 45.7 µM

Q: Request body: readout TGI, system SN12C renal, query c1ccc(-c2c(-c3ccccc3)[n+](Cc3ccc4ccccc4c3)c(-c3ccc(-c4nc5ccccc5s4)cc3)n2Cc2ccc3ccccc3c2)cc1 . Return the value.
Result: 1.04 µM

Q: Request body: readout TGI, system SN12C renal, query COc1cc2oc(-c3ccc(O)cc3)cc(=O)c2c(O)c1C1OC(CO)C(O)C(O)C1O (centres undefined) . Return the value.
Result: > 100 µM

Q: Request body: readout TGI, system SN12C renal, query Cc1nn(-c2ccc(Cl)cc2)c2ncnc(N/N=C/c3ccccc3O)c12 . Return the value.
Result: > 91.7 µM

Q: Request body: readout TGI, system SN12C renal, query COc1ccc2nc(NC(=O)/C(C#N)=C/c3ccccc3)sc2c1 . Return the value.
Result: > 100 µM

Q: Request body: readout TGI, system SN12C renal, query CC1CC(N2CCOCC2)=Nc2ccccc2N1C (centres undefined) . Return the value.
Result: > 100 µM

Q: Request body: readout TGI, system SN12C renal, query N#C/C(=C\c1cc(OCc2ccccc2)c(OCc2ccccc2)cn1)C(N)=O . Return the value.
Result: > 100 µM

Q: Request body: readout TGI, system SN12C renal, query CCc1ccccc1NC(=O)c1cccc([N+](=O)[O-])c1O . Return the value.
Result: > 100 µM

Q: Request body: readout TGI, system SN12C renal, query CSCC[C@@H](NC(=O)[C@H](CC(C)C)NC(=O)C(Cc1cnc[nH]1)NC(=O)CNC(=O)[C@@H](NC(=O)[C@H](C)NC(=O)[C@H](Cc1c[nH]c2ccccc12)NC(=O)[C@H](CCC(N)=O)NC(=O)[C@@H](N)CC(N)=O)C(C)C)C(N)=O (some centres undefined) . Return the value.
Result: > 100 µM

Q: Request body: readout TGI, system SN12C renal, query COc1ccc(OC)c(NCC(=O)n2nc(/C=C\c3ccc(O)c(OC)c3)cc2/C=C\c2ccc(O)c(OC)c2)c1 . Return the value.
Result: > 100 µM

Q: Request body: readout TGI, system SN12C renal, query Cc1c(C(=N)C(C#N)C#N)c(=N)oc2c1ccc1ccccc12 . Return the value.
Result: > 100 µM

These entries and their values trace back to PubChem BioAssay (NCI).
